System: PBMC
Assay: Antiinflammatory activity in human PBMC assessed as inhibition of MIF-induced IL-6 production at 100 uM after 21 hrs by ELISA
Assay type: functional

[
  {
    "Compound": "O=C1CCCN1C1CC(c2cn(-c3cccc(C(F)(F)F)c3)c3ccccc23)=NO1 (stereo not drawn)",
    "Assayed system": "PBMC",
    "inhibition at 100 µM / %": 52
  },
  {
    "Compound": "CC(C)(C)C(=O)OC1CC(c2ccoc2)=NO1 (stereo not drawn)",
    "Assayed system": "PBMC",
    "inhibition at 100 µM / %": 1
  },
  {
    "Compound": "c1cc(C2=NOC(C3CCCCC3)C2)co1 (stereo not drawn)",
    "Assayed system": "PBMC",
    "inhibition at 100 µM / %": 0
  },
  {
    "Compound": "CC1(C(=O)O)CC(c2ccoc2)=NO1 (stereo not drawn)",
    "Assayed system": "PBMC",
    "inhibition at 100 µM / %": 7
  },
  {
    "Compound": "O=C1CCCN1C1CC(c2ccoc2)=NO1 (stereo not drawn)",
    "Assayed system": "PBMC",
    "inhibition at 100 µM / %": 49
  },
  {
    "Compound": "c1ccc2c(c1)ccn2CC1CC(c2ccoc2)=NO1 (stereo not drawn)",
    "Assayed system": "PBMC",
    "inhibition at 100 µM / %": 6
  },
  {
    "Compound": "CC(C)(C)C(=O)OC1CC(c2cn(-c3cccc(C(F)(F)F)c3)c3ccccc23)=NO1 (stereo not drawn)",
    "Assayed system": "PBMC",
    "inhibition at 100 µM / %": 12
  },
  {
    "Compound": "OCCC1CC(c2cn(-c3cccc(C(F)(F)F)c3)c3ccccc23)=NO1 (stereo not drawn)",
    "Assayed system": "PBMC",
    "inhibition at 100 µM / %": 84
  },
  {
    "Compound": "O=C1c2ccccc2C(=O)N1C1CC(c2ccoc2)=NO1 (stereo not drawn)",
    "Assayed system": "PBMC",
    "inhibition at 100 µM / %": 13
  },
  {
    "Compound": "c1cc(C2=NOC(CN3CCOCC3)C2)co1 (stereo not drawn)",
    "Assayed system": "PBMC",
    "inhibition at 100 µM / %": 49
  },
  {
    "Compound": "COc1ccc(C2CC(c3ccoc3)=NO2)cc1 (stereo not drawn)",
    "Assayed system": "PBMC",
    "inhibition at 100 µM / %": 0
  },
  {
    "Compound": "COC(=O)CC1(C(=O)OC)CC(c2cn(-c3cccc(C(F)(F)F)c3)c3ccccc23)=NO1 (stereo not drawn)",
    "Assayed system": "PBMC",
    "inhibition at 100 µM / %": 4
  },
  {
    "Compound": "Fc1ccc(C2CC(c3cn(-c4cccc(C(F)(F)F)c4)c4ccccc34)=NO2)cc1 (stereo not drawn)",
    "Assayed system": "PBMC",
    "inhibition at 100 µM / %": 4
  }
]
